B1: HDV Ribozyme (parent)
chain: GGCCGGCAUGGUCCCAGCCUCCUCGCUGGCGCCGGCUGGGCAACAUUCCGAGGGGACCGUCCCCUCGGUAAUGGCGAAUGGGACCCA

Variants of: B1
Assay: self-cleavage, relative activity (ratio to wild type); higher = more cleavage; co-transcriptional
Kind request: treat 0.2 as inclusive, so self-cleavage at 0.2 or higher is Met, anything lower is Not met.

Query: Reported self-cleavage at or above 0.2? C36U C61A
Response: Met

Query: Try the variant G35A A45G
Response: Met

Query: A43G G59U ?
Response: Met

Query: And what about the variant C7G U79G ?
Response: Not met

Query: Follow-up item: G1A C62A
Response: Not met

Query: Same lookup for A70U U79C , please.
Response: Met

Query: // repeat for G2C C48G and report
Response: Not met

Query: Field entry: C41U A83U
Response: Met

Query: Follow-up entry: G2A A45U
Response: Not met

Query: Record: C14G G54A
Response: Met

Query: Please give the result for G35A C58U too.
Response: Met

Query: Also U79C G81C , if possible.
Response: Not met

Query: Field entry: C48A C86A
Response: Met

Query: Here is the next variant: C26G G28U
Response: Not met

Query: Follow-up entry: C58G C84U
Response: Met

Query: Then what about the variant G2A C21U ?
Response: Not met

Query: Then U47G G68U ?
Response: Met

Query: Another: G1U A56G
Response: Met

Query: For A16C A43U then?
Response: Not met

Query: Follow-up entry: U20A G38U
Response: Not met

Query: Quick one: U23G A87G
Response: Met

Query: Request: C33A G68C
Response: Not met

Query: Try C7A G55U next.
Response: Met

Query: Record: G6C C75A
Response: Not met

Query: Entry G5U U9A please
Response: Met

Query: Would you mind doing U12C U20C as well?
Response: Not met

Query: Please do the same for G6A G76C as well.
Response: Met

Query: Would you mind doing A8C A42G as well?
Response: Met

Query: Record: U37G U69A
Response: Not met

Query: Now this one: C32G A70G
Response: Not met

Query: And the next one, G5U C26G ?
Response: Met

Query: Next: U12A C49G
Response: Not met

Query: And G50U U72C ?
Response: Met

Query: Also, G2U C32A please.
Response: Not met

Query: Now consider U47G U72A and answer again.
Response: Met

Query: And what about the variant C57A C86A ?
Response: Met

Query: Would you kindly repeat that for G28A C64A ?
Response: Not met

Query: G55U G68C ?
Response: Met

Query: What about C19U G28U ?
Response: Not met

Query: Repeat with A16U G52A
Response: Met

Query: Here is the next variant: C7G C84G
Response: Not met

Query: And then G29U A71C , what is it?
Response: Not met

Query: Next entry: C22G A87U
Response: Not met

Query: Thanks! And G2U G31A ?
Response: Not met

Query: What do you have for G29A A77G ?
Response: Not met

Query: Request: C18U U79C
Response: Not met
